Recorded values, source patent US8541404B2.

# % (0.5 μM) hCYP11B1 annotations
Target: steroid 11-β-hydroxylase CYP11B1 (hCYP11B1) (Homo sapiens, UniProt P15538)
Construct: expressed in transfected cells; host or cells: V79 MZh11B1 (V79 Chinese hamster cells)
Sequence (P15538 25-503): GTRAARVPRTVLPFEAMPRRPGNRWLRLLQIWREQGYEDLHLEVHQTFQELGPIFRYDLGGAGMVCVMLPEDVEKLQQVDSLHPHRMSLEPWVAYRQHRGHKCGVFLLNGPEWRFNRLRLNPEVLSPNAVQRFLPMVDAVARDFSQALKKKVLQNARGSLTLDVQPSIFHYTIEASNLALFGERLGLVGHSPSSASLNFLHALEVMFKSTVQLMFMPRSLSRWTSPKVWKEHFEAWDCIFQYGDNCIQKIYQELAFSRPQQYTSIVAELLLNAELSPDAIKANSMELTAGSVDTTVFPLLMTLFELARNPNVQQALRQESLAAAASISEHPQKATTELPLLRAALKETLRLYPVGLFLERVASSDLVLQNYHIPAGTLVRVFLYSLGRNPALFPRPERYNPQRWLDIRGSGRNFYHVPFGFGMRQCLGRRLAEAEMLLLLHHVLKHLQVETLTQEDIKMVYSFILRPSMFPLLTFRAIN
Assay: Inhibition test in V79 MZh11B1 cells (test system B)
Type: cell-based
Conditions: Table 2, percentage inhibition, inhibitor concentration 0.5 μM
Experimental: Maintenance of the cells: V79 MZh11B2 and V79 MZh11B1, which recombinantly express human aldosterone synthase (CYP11B2) or steroid 11-β-hydroxylase CYP11B1) and were prepared according to Denner et al. (Denner, K. et al., Pharmacogenetics 5:89-96 (1995)), were cultured in cell culture dishes of 60 or 90 mm diameter in a CO2 incubator at 37° C. and in a water-saturated atmosphere containing 5% of CO2. […] In the case of V79 MZh11B1, conversion was calculated analogously to equation 1, wherein: […]

Smiles input | % (0.5 μM) hCYP11B1 [%]
O=C1CSc2cc(-c3cccnc3)ccc2N1 | 49
COc1cncc(-c2cc3c4c(c2)CCC(=O)N4CCC3)c1 | 51
O=C1CCc2cc(-n3ccnc3)cc3c2N1CC3 | 24
S=C1CCc2cc(-c3cccnc3)ccc2N1 | 49
CN1C(=O)CCc2cc(-c3cncc4ccccc34)ccc21 | 97

###

Define the label as Condition met when melting point is strictly less than 200 °C and as Condition not met in all remaining cases.

Smiles input | Label class
O=C1CCc2cc(-c3cccnc3)c(F)cc2N1 | Condition not met
O=C1CCc2cc(-c3cccnc3)cc(Cl)c2N1 | Condition met
CN1CC(=O)Nc2ccc(-c3cccnc3)cc21 | Condition not met
O=C1CCc2cc(-c3cncc(C(F)(F)F)c3)cc3c2N1CC3 | Condition not met
O=C1CCc2cc(-c3cncc4ccccc34)cc3c2N1CCC3 | Condition met
COc1cncc(-c2cc3c4c(c2)CCN4C(=O)CC3)c1 | Condition met
COc1cncc(-c2ccc3c(c2)CCC(=O)N3C)c1 | Condition met
O=C1CSc2cc(-c3cccnc3)ccc2N1 | Condition not met
O=C1CCc2cc(-c3cncc(-c4ccccc4)c3)cc3c2N1CC3 | Condition met
O=C1CCc2cc(-c3cncc4ccccc34)c(F)cc2N1 | Condition not met

###

Counter-ions that a name gives are not always drawn.

Molecule | Readout unit | Lt gt eq | melting point
O=C1CCc2cc(-c3cccnc3)cc([N+](=O)[O-])c2N1 | °C | = | 189
CCC(c1cc2c3c(c1)CCN3C(=O)CC2)n1ccnc1 (stereo not drawn) | °C | = | 195
CN1C(=O)CCc2cc(-c3cccnc3)ccc21 | °C | = | 101
O=C(c1cccnc1)c1cc2c3c(c1)CCN3C(=O)CC2 | °C | = | 147
O=C1CCc2cc(-c3cncnc3)cc3c2N1CC3 | °C | = | 186
O=C1CCc2cc(-c3cncc(F)c3)cc3c2N1CC3 | °C | = | 158
O=C1CCc2cc(-c3cncnc3)ccc2N1 | °C | = | 233
COc1cncc(-c2cc3c4c(c2)CCC(=O)N4CCC3)c1 | °C | = | 150
O=C1CCc2cc(-c3cncc(O)c3)cc3c2N1CC3 (as salt: HCl) | °C | > | 300
CN1C(=O)CCc2cc(-c3cncc4ccccc34)ccc21 | °C | = | 176
Fc1cc(-c2cccnc2)cc2c1NC(=S)CC2 | °C | = | 235
O=C1CCc2cc(-c3cncc4ccccc34)cc(F)c2N1 | °C | = | 202
S=C1CCc2cc(-c3cccnc3)cc(Cl)c2N1 | °C | = | 175
COc1cncc(-c2ccc3c(c2)CCC(=O)N3)c1 | °C | = | 215
O=C1COc2cc(-c3cncc4ccccc34)ccc2N1 | °C | = | 266
CCOc1cncc(-c2cc3c4c(c2)CCN4C(=O)CC3)c1 | °C | = | 172
CC(C)Oc1cncc(-c2cc3c4c(c2)CCN4C(=O)CC3)c1 | °C | = | 155
O=C1CCc2cc(-c3cncc(-c4ccc(F)cc4)c3)cc3c2N1CC3 | °C | = | 233
O=C1CCc2cc(-c3cccnc3)c(O)cc2N1 | °C | = | 298
CC(C)N1C(=O)CCc2cc(-c3cccnc3)ccc21 | °C | = | 101
O=C1CCc2cc(-c3cncc(-c4cccc(F)c4)c3)cc3c2N1CC3 | °C | = | 181
